Target: Cyclin-dependent kinase 18 (Homo sapiens); also: in the data inactive means no Kd found up to 30 µM
Sequence (Q07002 whole entry): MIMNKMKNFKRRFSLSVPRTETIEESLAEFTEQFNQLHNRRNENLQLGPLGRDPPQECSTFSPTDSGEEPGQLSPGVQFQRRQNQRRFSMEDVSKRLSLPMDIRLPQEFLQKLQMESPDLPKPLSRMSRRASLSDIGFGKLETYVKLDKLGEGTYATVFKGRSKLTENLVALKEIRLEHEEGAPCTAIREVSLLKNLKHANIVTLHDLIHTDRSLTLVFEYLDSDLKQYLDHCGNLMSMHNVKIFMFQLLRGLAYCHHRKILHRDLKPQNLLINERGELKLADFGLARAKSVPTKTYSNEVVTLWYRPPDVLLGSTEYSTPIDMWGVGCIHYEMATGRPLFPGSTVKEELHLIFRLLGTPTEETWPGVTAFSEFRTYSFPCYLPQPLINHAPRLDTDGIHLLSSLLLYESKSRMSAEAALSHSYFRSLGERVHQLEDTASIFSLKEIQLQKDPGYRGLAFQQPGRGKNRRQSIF
Activity calls are given as the source filed them.
// classify into yes (active), no (inactive)

// query Assay result, entry Cc1cc(Nc2ncnc3ccc(NC4=NC(C)(C)CO4)cc23)ccc1Oc1ccn2ncnc2c1 — outcome?
// result no

// query Assay result, entry CO[C@H]1C[C@@H]2CC[C@@H](C)[C@@](O)(O2)C(=O)C(=O)N2CCCC[C@H]2C(=O)O[C@H]([C@H](C)C[C@@H]2CC[C@@H](O)[C@H](OC)C2)CC(=O)[C@H](C)/C=C(\C)[C@@H](O)[C@@H](OC)C(=O)[C@H](C)C[C@H](C)/C=C/C=C/C=C/1C — outcome?
// result no

----------
Biological target: Proto-oncogene tyrosine-protein kinase receptor Ret (Homo sapiens, UniProt P07949); also: in the data inactive means no Kd found up to 30 µM
Sequence (P07949 whole entry): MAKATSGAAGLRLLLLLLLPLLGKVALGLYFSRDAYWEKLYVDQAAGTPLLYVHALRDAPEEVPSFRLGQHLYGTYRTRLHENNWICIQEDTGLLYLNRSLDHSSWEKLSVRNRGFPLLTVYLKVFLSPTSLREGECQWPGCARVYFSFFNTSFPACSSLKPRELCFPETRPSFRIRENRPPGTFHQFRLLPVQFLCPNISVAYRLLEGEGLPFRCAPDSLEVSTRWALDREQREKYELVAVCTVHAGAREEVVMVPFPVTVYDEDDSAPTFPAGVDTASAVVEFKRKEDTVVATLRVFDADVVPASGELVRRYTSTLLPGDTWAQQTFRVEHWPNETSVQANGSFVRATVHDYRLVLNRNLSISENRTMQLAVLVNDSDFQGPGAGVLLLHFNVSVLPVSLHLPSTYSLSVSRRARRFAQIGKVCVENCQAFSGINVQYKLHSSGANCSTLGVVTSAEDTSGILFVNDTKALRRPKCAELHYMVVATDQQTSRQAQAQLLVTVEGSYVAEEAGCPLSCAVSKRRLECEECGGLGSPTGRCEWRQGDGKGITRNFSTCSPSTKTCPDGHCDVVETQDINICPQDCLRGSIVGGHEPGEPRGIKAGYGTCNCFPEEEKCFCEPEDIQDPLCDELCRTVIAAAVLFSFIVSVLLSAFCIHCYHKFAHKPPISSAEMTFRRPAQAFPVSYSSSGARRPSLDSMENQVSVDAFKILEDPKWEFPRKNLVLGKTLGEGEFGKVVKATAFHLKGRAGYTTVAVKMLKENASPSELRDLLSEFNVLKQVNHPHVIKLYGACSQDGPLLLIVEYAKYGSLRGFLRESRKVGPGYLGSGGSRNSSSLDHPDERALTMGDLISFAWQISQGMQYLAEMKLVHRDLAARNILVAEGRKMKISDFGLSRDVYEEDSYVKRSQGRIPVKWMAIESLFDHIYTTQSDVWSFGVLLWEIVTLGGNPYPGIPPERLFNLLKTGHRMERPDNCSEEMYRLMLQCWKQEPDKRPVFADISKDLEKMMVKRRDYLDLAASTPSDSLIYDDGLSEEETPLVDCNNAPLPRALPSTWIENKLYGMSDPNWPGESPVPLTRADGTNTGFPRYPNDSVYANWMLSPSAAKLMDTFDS
Activity calls are given as the source filed them.
Readout kind: Kd

Molecule	Readout kind	Result
CCn1cc(-c2ccnc3[nH]c(-c4cccc(CN(C)C)c4)cc23)c(-c2ccc(NC(=O)N(C)C)cc2)n1	Kd	0.067 µM (active)
COc1cc([C@@H]2c3cc4c(cc3[C@H](O)[C@H]3COC(=O)[C@@H]23)OCO4)cc(OC)c1OC	Kd	> 30 µM (inactive)
C[C@@H](N)c1ccc(C(=O)Nc2ccnc3[nH]ccc23)cc1	Kd	> 30 µM (inactive)
Nc1ncnc2c1c(-c1cccc(OCc3ccccc3)c1)cn2[C@H]1C[C@@H](CN2CCC2)C1	Kd	23.2 µM (active)
Cn1ncc(Cl)c1-c1cc(C(=O)N[C@H](CN)Cc2ccc(F)c(F)c2)oc1Cl	Kd	> 30 µM (inactive)
O=C(Nc1cc(C(F)(F)F)cc(C(F)(F)F)c1)c1cc(Cl)ccc1O	Kd	> 30 µM (inactive)
COc1ncc(-c2ccc3nccc(-c4ccnnc4)c3c2)cc1NS(=O)(=O)c1ccc(F)cc1F	Kd	> 30 µM (inactive)
COc1ccc(S(=O)(=O)N(C(C)=O)c2ccccc2/C=C/c2cc[n+]([O-])cc2)cc1	Kd	> 30 µM (inactive)
Cc1nc(NC(=O)N2CCC[C@H]2C(N)=O)sc1-c1ccnc(C(C)(C)C(F)(F)F)c1	Kd	> 30 µM (inactive)
Cc1cnc(NC(=O)Nc2cc(Br)c(C)cc2OC[C@@H]2CNCCO2)cn1	Kd	> 30 µM (inactive)

// query Item under review: CCNC(=O)C#Cc1ccc2c(c1)NC(=O)/C2=C(\Nc1ccc(CN(C)C)cc1)c1ccccc1 . Reported Kd?
// result 0.227 µM (active)

// query Item under review: Cc1cc(Nc2ncnc3ccc(NC4=NC(C)(C)CO4)cc23)ccc1Oc1ccn2ncnc2c1 . Reported Kd?
// result > 30 µM (inactive)

// query Item under review: O=C1NC(=O)[C@@H](c2cn3c4c(cccc24)CCC3)[C@@H]1c1c[nH]c2ccccc12 [TIVANTINIB] . Reported Kd?
// result > 30 µM (inactive)

// query Item under review: Cc1nc2cc(-n3ncc(C(=O)c4cc5ccccc5[nH]4)c3N)ccc2[nH]1 . Reported Kd?
// result 0.783 µM (active)

// query Item under review: CCCCCCCCCCCCCCCCCCOP(=O)([O-])OC1CC[N+](C)(C)CC1 . Reported Kd?
// result > 30 µM (inactive)

// query Item under review: CO[C@H]1C[C@@H]2CC[C@@H](C)[C@@](O)(O2)C(=O)C(=O)N2CCCC[C@H]2C(=O)O[C@H]([C@H](C)C[C@@H]2CC[C@@H](OP(C)(C)=O)[C@H](OC)C2)CC(=O)[C@H](C)/C=C(\C)[C@@H](O)[C@@H](OC)C(=O)[C@H](C)C[C@H](C)/C=C/C=C/C=C/1C . Reported Kd?
// result > 30 µM (inactive)

// query Item under review: Cn1cc(-c2cnc3ccc4ccc(CS(=O)(=O)NCc5ccccn5)cc4c(=O)c3c2)cn1 . Reported Kd?
// result > 30 µM (inactive)

// query Item under review: C=CC(=O)N1CCC[C@H](n2c(=O)n(-c3ccc(Oc4ccccc4)cc3)c3c(N)ncnc32)C1 . Reported Kd?
// result > 30 µM (inactive)
